Data origin: patent US20240254083A1

- targetDesc: hTRPML1 (Homo sapiens, UniProt Q9GZU1)
- Construct: expressed in transfected cells
- Sequence (Q9GZU1 whole entry): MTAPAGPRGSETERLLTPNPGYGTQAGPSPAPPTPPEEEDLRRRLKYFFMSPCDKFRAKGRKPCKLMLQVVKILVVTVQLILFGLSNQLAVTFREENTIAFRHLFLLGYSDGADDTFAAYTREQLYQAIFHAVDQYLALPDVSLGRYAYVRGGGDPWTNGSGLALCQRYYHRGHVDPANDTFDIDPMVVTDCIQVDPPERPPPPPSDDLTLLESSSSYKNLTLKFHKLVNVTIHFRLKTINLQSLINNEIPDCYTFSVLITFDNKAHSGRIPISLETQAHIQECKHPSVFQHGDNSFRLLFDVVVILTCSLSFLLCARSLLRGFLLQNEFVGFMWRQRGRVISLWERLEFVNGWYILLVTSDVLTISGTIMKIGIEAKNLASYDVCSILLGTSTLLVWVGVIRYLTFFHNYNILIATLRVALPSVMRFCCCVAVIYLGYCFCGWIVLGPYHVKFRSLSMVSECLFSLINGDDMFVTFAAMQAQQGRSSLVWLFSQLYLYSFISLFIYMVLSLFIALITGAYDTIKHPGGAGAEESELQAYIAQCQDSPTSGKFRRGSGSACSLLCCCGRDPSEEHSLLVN
- assayOverview: Cellular TRPML1 assay (FLIPR, GCaMP6f calcium read-out)
- Format: cell-based
- experimentalParameters: HEK T-REx/GCaMP6f/TRPML1 cells, FLIPR TETRA, kinetic response over 300 seconds; read-out: hTRPML1 FLIPR pEC50 (converted)
Parameter EC50: see the listing below.

Cc1ccc(N2CCC(Oc3ccccn3)CC2)c(N(C(=O)c2ccc(S(=O)(=O)N(C)C)cc2)C2CCCC2)c1 | 1 to 3.16 µM

Read the entry CN(C)S(=O)(=O)c1ccc(S(=O)(=O)Nc2cccc(F)c2N2CCC(Oc3ccc(Cl)cn3)CC2)cc1 and write its reported EC50.
< 1 µM

Annotate the compound CN(C)S(=O)(=O)c1ccc(S(=O)(=O)Nc2ccccc2N2CCCC(OCc3ccccc3)C2)cc1 (racemic) with its measured EC50.
1 to 3.16 µM

Specify measured EC50 for CN(C)S(=O)(=O)c1ccc(C(=O)N(c2ccccc2N2CCC(Oc3ccccc3)CC2)C2CC2)cc1 .
> 3.16 µM
